Measured drug sensitivity score, listed per entry.
- Test system: HSC2 (primary human Schwann cells)
- protocol.summary: drug sensitivity score (DSS, CellTiter-Glo viability, 72 h) (DSS (dimensionless)); higher = more sensitive; extreme values may be limits of the assay
Respond using a number only.

Please review the entries below; each comes with its answer.
COc1cc2c(Oc3ccc4[nH]c(C)cc4c3F)ncnc2cc1OCCCN1CCCC1 [Cediranib] (max concentration tested 1000 nM); 0
CCN(CC)CCOc1ccc(/C(=C(/Cl)c2ccccc2)c2ccccc2)cc1 [Clomifene] (max concentration tested 10000 nM); 6.36
COc1cc2c(cc1-c1c(C)noc1C)ncc1[nH]c(=O)n([C@H](C)c3ccccn3)c12 [I-BET151] (max concentration tested 10000 nM); 7.44
CCCC(CCC)C(=O)O [Valproic acid aq] (max concentration tested 1000000 nM); 4.4
Cc1nc(Nc2ncc(C(=O)Nc3c(C)cccc3Cl)s2)cc(N2CCN(CCO)CC2)n1 [Dasatinib] (max concentration tested 1000 nM); 5.78

Let us move to another entry and its drug sensitivity score.
### Prompt Value lookup for drug sensitivity score; key = CO[C@H]1C[C@@H]2CC[C@@H](C)[C@@](O)(O2)C(=O)C(=O)N2CCCC[C@H]2C(=O)O[C@H]([C@H](C)C[C@@H]2CC[C@@H](OC(=O)C(C)(CO)CO)[C@H](OC)C2)CC(=O)[C@H](C)/C=C(\C)[C@@H](O)[C@@H](OC)C(=O)[C@H](C)C[C@H](C)/C=C/C=C/C=C/1C [Temsirolimus] (max concentration tested 100 nM)
### Response 16.5
